experiment: solvent given as SMILES; conditions: in C1CCOC1
Quick rule for you: emission maximum at 500 nm or higher means T, lower means F.

I'd appreciate it if you could say whether `CSC1=C(C)C2=C(c3ccc(C)cc3)c3c(C)c(Cl)c(C)n3[B-](F)(F)[N+]2=C1C` has emission maximum at least equal to 500 nm. T

Follow-up entry: `CCCCOc1ccc(-c2cc3c(o2)c(-c2ccc(OCCCC)cc2)c2n3[B-](F)(F)[N+]3=Cc4c(-c5ccc(OCCCC)cc5)c5oc(-c6ccc(OCCCC)cc6)cc5n4[B-](F)(F)[N+]3=C2)cc1` T

Follow-up entry: `CCN1\C(=C/C=C/C=C/C2=[N+](CC)c3ccc4cc(Br)ccc4c3C2(C)C)C(C)(C)c2c1ccc1cc(Br)ccc21` T

Follow-up entry: `O=C1/C(=C2\Nc3cc4ccc5cccc6ccc(c3C2=O)c4c56)Nc2cc3ccc4cccc5ccc(c21)c3c45` T

Follow-up entry: `C(=C(c1ccccc1)c1ccccc1)c1ccc(C=C(c2ccccc2)c2ccccc2)cc1` F

Follow-up entry: `N#Cc1cc2ccc(O)cc2oc1=O` F

Follow-up entry: `C1=Cc2ccccc2C(=Cc2ccc(C=C3c4ccccc4-c4ccccc43)cc2)c2ccccc21` F

Follow-up entry: `CCCCCCc1ccc(-n2c3[n+](c4c5ccccc5c5ccccc5c42)[B-](C)(C)c2cc(-n4c5ccccc5c5ccccc54)ccc2-3)cc1` F

Follow-up entry: `Nc1ccc(-c2ccc(N)cc2)cc1` F

Follow-up entry: `N#Cc1ccc(-c2ccc3c(c2)c2cc(-c4ccc(C#N)cc4)ccc2c2c3nc(-c3ccc(N(c4ccccc4)c4ccccc4)cc3)n2-c2ccccc2)cc1` F

Follow-up entry: `CC1(C)Nc2cc(Cl)ccc2-c2[nH]c3ccccc3c(=O)c21` F

Follow-up entry: `c1ccc(-c2oc(-c3ccccc3)c3ccccc23)cc1` F

Follow-up entry: `c1ccc(-c2cnc3nn4ccccc4c3c2)cc1` F

Follow-up entry: O=Cc1ccc(-c2ccc(C3=CCC(c4ccccc4)CC3)s2)s1 (centres undefined) F

Follow-up entry: `CCCCC[n+]1ccc(/C=C/c2ccc(N(C)C)c3ccccc23)c2ccccc21` T

Follow-up entry: `CCn1c2ccccc2c2cc(/C=C/c3cc(/C=C/c4ccc5c(c4)c4ccccc4n5CC)ncn3)ccc21` F

###

assay: solvent given as SMILES; details: in CC(C)O
For each of the molecules below, state its emission maximum.
Field: numeric (nm). Do not append units.

Field request: emission maximum | item: `CN(C)c1ccc2cc3c(cc2c1)OCCN=C3` 447

Follow-up entry: `Cc1cc2nc3cc(C)c(N)cc3[n+](-c3ccccc3)c2cc1N` 562

Follow-up entry: `COC(=O)c1ccc(C#Cc2ccc(N(C)C)cc2)cc1` 441.5

Follow-up entry: NS(=O)(=O)c1ccc(N2N=C(c3ccc(O)cc3)CC2c2ccccc2)cc1 (stereo unspecified) 423

Follow-up entry: `CN(C)c1ccc(/C=C2\OC(=O)c3cc(N)ccc32)cc1` 550.06

Follow-up entry: `COCCOc1ccc(OCCOC)c(C=O)c1` 453

Follow-up entry: `NCCc1c[nH]c2ccc(O)cc12` 335

Follow-up entry: `Oc1ccccc1/C=N/c1ccc(Cn2cncn2)cc1` 367

Follow-up entry: NS(=O)(=O)c1ccc(N2N=C(c3ccc(O)cc3)CC2c2ccc(Cl)cc2)cc1 (stereo unspecified) 423

Follow-up entry: `CC1(C)CCc2c(c3ccccc3c3nc4c(nc23)c2c(c3ccccc34)OC(C)(C)CC2)O1` 448.03

Follow-up entry: COC(=O)C(Cc1ccc2oc(-c3ccc(Nc4ccccc4)cc3)nc2c1)NC(=O)OC(C)(C)C (stereo unspecified) 440.51

Data origin, for the record: the Deep4Chem optical property database
